TARGET UNDER TEST: Histone deacetylase 1 (Homo sapiens, UniProt Q13547)
Sequence (Q13547 whole entry): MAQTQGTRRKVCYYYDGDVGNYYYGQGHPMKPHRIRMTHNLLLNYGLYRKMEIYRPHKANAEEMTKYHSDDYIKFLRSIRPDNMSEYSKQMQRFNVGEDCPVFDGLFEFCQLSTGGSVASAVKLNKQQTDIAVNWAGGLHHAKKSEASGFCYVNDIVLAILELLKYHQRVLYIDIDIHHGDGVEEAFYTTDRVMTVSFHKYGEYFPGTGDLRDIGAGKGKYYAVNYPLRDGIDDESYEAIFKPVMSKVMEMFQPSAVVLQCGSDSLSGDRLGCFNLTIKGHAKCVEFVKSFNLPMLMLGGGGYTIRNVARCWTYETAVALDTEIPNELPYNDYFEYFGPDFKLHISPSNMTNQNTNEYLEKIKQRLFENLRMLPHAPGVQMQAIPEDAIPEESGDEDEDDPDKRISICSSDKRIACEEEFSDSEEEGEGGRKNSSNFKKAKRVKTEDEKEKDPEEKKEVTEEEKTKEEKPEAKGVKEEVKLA
PROTOCOL: Inhibition of human recombinant HDAC1 using RHKKAc peptide as substrate incubated for 5 to mins prior to substrate addition measured after 2 hrs
MEASUREMENT TYPE: pIC50
# pIC50: negative log10 of molar concentration; output just the value

Field: example entries. Status: answers known.
{"COMPOUND SMILES": "CN1CCc2c(c3cc(Cl)ccc3n2Cc2ccc(C(=O)NO)cc2)C1", "pIC50": 5.99}
{"COMPOUND SMILES": "NC(=O)CCCN1CCc2c(c3ccccc3n2Cc2ccc(C(=O)NO)cc2)C1", "pIC50": 5.13}
{"COMPOUND SMILES": "CN1CCc2c(c3cc(Br)ccc3n2Cc2ccc(C(=O)NO)cc2)C1", "pIC50": 6.37}
{"COMPOUND SMILES": "Cc1ccc2c3c(n(Cc4ccc(C(=O)NO)cc4)c2c1)CCN(C)C3", "pIC50": 5.39}
{"COMPOUND SMILES": "CCN1CCc2c(c3ccccc3n2Cc2ccc(C(=O)NO)cc2)C1", "pIC50": 4.99}

Now let's try a different one.
stdin: Find the recorded pIC50 belonging to Cc1cc(C)c2c3c(n(Cc4ccc(C(=O)NO)cc4)c2c1)CCN(C)C3 and report it.
stdout: 4.99

---

Here, each record is paired with measured log10(IC50) data.
TARGET UNDER TEST: Histone deacetylase 1 (Homo sapiens)
PROTOCOL: Inhibition of human recombinant HDAC1 using RHKKAc peptide as substrate incubated for 5 to mins prior to substrate addition measured after 2 hrs
log10 IC50, µM

{"COMPOUND SMILES": "C=CCN1CCc2c(c3ccccc3n2Cc2ccc(C(=O)NO)cc2)C1", "MEASUREMENT TYPE": "log10(IC50)", "REPORTED VALUE": 0.76}
{"COMPOUND SMILES": "CC(C)(C)OC(=O)N1CCc2c(c3ccccc3n2Cc2ccc(C(=O)NO)cc2)C1", "MEASUREMENT TYPE": "log10(IC50)", "REPORTED VALUE": 0.94}
{"COMPOUND SMILES": "NC(=O)CCN1CCc2c(c3ccccc3n2Cc2ccc(C(=O)NO)cc2)C1", "MEASUREMENT TYPE": "log10(IC50)", "REPORTED VALUE": 0.21}
{"COMPOUND SMILES": "CC(C)N1CCc2c(c3ccccc3n2Cc2ccc(C(=O)NO)cc2)C1", "MEASUREMENT TYPE": "log10(IC50)", "REPORTED VALUE": 1.20}
{"COMPOUND SMILES": "O=C(NO)c1ccc(Cn2c3c(c4ccccc42)CCN(Cc2ccccc2)C3)cc1", "MEASUREMENT TYPE": "log10(IC50)", "REPORTED VALUE": 0.64}

stdin: Find the recorded log10(IC50) belonging to COc1cccc(CN2CCc3c(c4ccccc4n3Cc3ccc(C(=O)NO)cc3)C2)c1 and report it.
stdout: 0.72

---

TARGET UNDER TEST: Protein deacetylase HDAC6 (Homo sapiens)
Sequence (Q9UBN7 whole entry): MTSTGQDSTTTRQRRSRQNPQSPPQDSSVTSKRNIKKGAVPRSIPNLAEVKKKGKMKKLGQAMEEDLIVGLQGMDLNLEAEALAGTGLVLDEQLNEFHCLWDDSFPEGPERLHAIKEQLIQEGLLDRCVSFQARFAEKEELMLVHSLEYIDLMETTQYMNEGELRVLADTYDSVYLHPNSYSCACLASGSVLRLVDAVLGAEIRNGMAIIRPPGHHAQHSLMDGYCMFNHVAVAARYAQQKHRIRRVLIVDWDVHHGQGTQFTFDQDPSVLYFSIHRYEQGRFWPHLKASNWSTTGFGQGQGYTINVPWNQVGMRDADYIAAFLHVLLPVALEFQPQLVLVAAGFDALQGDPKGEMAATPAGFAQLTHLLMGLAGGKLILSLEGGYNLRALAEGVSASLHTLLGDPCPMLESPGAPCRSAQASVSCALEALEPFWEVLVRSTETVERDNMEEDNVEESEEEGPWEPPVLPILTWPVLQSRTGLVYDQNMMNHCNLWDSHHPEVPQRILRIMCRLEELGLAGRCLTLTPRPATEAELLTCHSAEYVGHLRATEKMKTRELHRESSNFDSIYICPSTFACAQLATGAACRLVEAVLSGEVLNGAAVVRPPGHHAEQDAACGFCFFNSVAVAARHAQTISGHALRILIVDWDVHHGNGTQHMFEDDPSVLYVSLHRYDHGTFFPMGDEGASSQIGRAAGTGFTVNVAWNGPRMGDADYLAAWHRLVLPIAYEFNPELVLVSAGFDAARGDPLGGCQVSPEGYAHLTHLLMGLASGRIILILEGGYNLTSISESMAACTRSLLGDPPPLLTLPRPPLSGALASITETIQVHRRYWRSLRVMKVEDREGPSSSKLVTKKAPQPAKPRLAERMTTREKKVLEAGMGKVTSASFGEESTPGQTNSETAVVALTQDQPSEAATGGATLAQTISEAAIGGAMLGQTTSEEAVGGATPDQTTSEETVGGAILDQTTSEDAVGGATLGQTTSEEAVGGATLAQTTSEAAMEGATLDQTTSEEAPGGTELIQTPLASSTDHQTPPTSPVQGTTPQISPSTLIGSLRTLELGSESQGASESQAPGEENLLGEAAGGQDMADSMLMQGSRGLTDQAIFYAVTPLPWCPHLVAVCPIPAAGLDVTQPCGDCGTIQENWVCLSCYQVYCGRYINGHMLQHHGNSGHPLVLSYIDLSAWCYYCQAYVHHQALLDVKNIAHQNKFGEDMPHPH
PROTOCOL: Inhibition of human recombinant HDAC6 using RHKKAc peptide as substrate incubated for 5 to mins prior to substrate addition measured after 2 hrs
pIC50: −log10 of the molar value.
Decide by pIC50: equal to or exceeding 8 means satisfied, less means not satisfied.

{"COMPOUND SMILES": "CN1CCc2c(c3cc(C(C)(C)C)ccc3n2Cc2ccc(C(=O)NO)cc2)C1", "CATEGORY LABEL": "not satisfied"}

stdin: Hello, I need to know if O=C(NO)c1ccc(Cn2c3c(c4ccccc42)CCNC3)cc1 has measured pIC50 not below 8. Thanks!
stdout: satisfied

stdin: Hello, I need to know if CN1CCc2c(n(Cc3ccc(C(=O)NO)cc3)c3ccccc23)C1 has measured pIC50 not below 8. Thanks!
stdout: satisfied

Where do these numbers come from? They come from ChEMBL document CHEMBL2016572.
